Please provide measured pIC50 for the entries that follow.
- assay-target: T1, human α4β7 integrin on cells (human, UniProt P13612 34-1032; P26010 20-798)
- T1 construct: whole, on cells; also called α4β7 cell (Hu); RPMI8866 cells
- protocol-text: RPMI8866 cell adhesion to MAdCAM-1
pIC50: −log10 of the molar value. Numbered stars: 1 amine (or outer) side, 2 acyl side, 3 side chain; on linkers, the order of the positions; unused ones are H or OH. Bridge positions count the residues as written; N and C are the ends. Square brackets hold non-standard residues; d marks the D form. Primed or numbered codes have the meaning given here. Phe(4-OMe)″ = 4-methoxy-phenylalanine, COc1ccc(C[C@H](N[*:1])C(=O)[*:2])cc1; Phe(4-COOH) = N[C@@H](Cc1ccc(C(=O)O)cc1)C(=O)O; Phe(4-tBu) = CC(C)(C)c1ccc(C[C@H](N)C(=O)O)cc1; Phe(2,4-Cl2) = N[C@@H](Cc1ccc(Cl)cc1Cl)C(=O)O; NMeR = CN[C@@H](CCCNC(=N)N)C(=O)O; β3hE = N[C@@H](CCC(=O)O)CC(=O)O; NMeK = CN[C@@H](CCCCN)C(=O)O; Pen = CC(C)(S)[C@H](N)C(=O)O

What value of pIC50 has been recorded for this entry: Ac-[Pen][NMeR]SDTL[Pen][Phe(4-OMe)″][dE][dK]-NH2 (disulfide 1-7; not fully specified (residue 10); printed as (Ac Pen N-Me-R S D T L Pen F(4-OMe) e k NH2)2 DIG; also: homodimer: two subunits joined by DIG linker) [SEQ ID NO: 103]
< 7.60

What value of pIC50 has been recorded for this entry: Ac-[Pen][NMeR]SDTL[Pen][Phe(4-COOH)]E[NMeK]-NH2 (disulfide 1-7; not fully specified (residue 10); printed as (Ac Pen N-Me-R S D T L Pen F(4-COOH) E N-Me-K NH2)2 DIG, disulfide Pen-Pen; also: homodimer (…)2 DIG via Lys10 NZ) [SEQ ID NO: 147]
≥ 8.00

What value of pIC50 has been recorded for this entry: Ac-[Pen][NMeR]SDTL[Pen]W[dP]K-NH2 (disulfide 1-7; also: homodimer, two subunits linked by DIG at Lys10) [SEQ ID NO: 96]
< 7.30

What value of pIC50 has been recorded for this entry: Ac-[Pen][NMeR]SDTQ[Pen][Phe(4-tBu)][β3hE][dK]-NH2 (disulfide 1-7; also: homodimer: two subunits joined by IDA linker) [SEQ ID NO: 187]
< 7.00

What value of pIC50 has been recorded for this entry: Ac-[Pen][NMeR]SDTL[Pen][Phe(2,4-Cl2)]E[dK]-NH2 (disulfide 1-7; not fully specified (residue 10); printed as (Ac Pen N-Me-R S D T L Pen F(2,4-diCl) E k NH2)2 DIG, disulfide Pen-Pen; also: dimer, two subunits joined by DIG linker) [SEQ ID NO: 42]
≥ 8.00

What value of pIC50 has been recorded for this entry: Ac-[Pen][NMeR]SDTL[Pen][Phe(4-tBu)][β3hE][NMeK]-NH2 (disulfide 1-7; not fully specified (residue 10); printed as (Ac Pen N-Me-R S D T L Pen F(4-tBu) b-H-E N-Me-K NH2)2 DIG, disulfide Pen-Pen; also: homodimer (…)2 DIG via Lys10 NZ) [SEQ ID NO: 149]
≥ 8.00
